Cited source for all entries: ChEMBL document CHEMBL1201862

# GI50 listing for each entry below
system: NCI-H460; experiment: NCI tumour cell line growth inhibition, 48 h
Active and inactive are the calls of the source. No stated cut-off is given here; in the data, active = GI50 up to about 1.1 µM and inactive = higher.

Please review the following examples before continuing.
compound | result
CC(C)(C)c1ccc(-c2nnc(-c3cc(C#N)cc(-c4nnc(-c5ccc(C(C)(C)C)cc5)o4)c3)o2)cc1 | > 100 µM (inactive)
CCOC(=O)C(=O)CC(=O)C(Br)C(Br)c1ccc(Cl)cc1 (stereo not drawn) | > 100 µM (inactive)

Please find the next compound below.
// query Return reported GI50. Input compound: Cc1c(Cl)c(S(N)(=O)=O)cc2c1N=CNS2(=O)=O
// result > 100 µM (inactive)
